target: FLAG-Uba1 (Homo sapiens, UniProt P22314)
Construct: GST- and FLAG-tagged human Uba1 in pBJ842, expressed in S. cerevisiae BJ5654, GST cleaved with PreScission protease, FLAG tag kept
method: AlphaScreen Uba1~ubiquitin thioester formation
Type: biochemical
experimental-conditions: read-out: IC50for inhibition of Uba1~Ub thioester formation (Alpha)
measured-endpoint: IC50 (µM)
Answer in µM, number only, no unit symbol.

{"smiles-representation": "O=c1c(O)c(-c2cc(O)c(O)c(O)c2)oc2cc(O)cc(O)c12", "target": "FLAG-Uba1 (Homo sapiens, UniProt P22314)", "units-label": "µM", "IC50": 1.59}
{"smiles-representation": "O=C1c2c(O)cc(O)cc2O[C@H](c2cc(O)c(O)c(O)c2)[C@H]1O", "target": "FLAG-Uba1 (Homo sapiens, UniProt P22314)", "units-label": "µM", "IC50": 27.5}
{"smiles-representation": "Oc1cc(O)c2c(c1)O[C@H](c1cc(O)c(O)c(O)c1)[C@H](O)C2", "target": "FLAG-Uba1 (Homo sapiens, UniProt P22314)", "units-label": "µM", "IC50": 5.96}
{"smiles-representation": "O=C(O[C@@H]1Cc2c(O)cc(O)cc2O[C@@H]1c1ccc(O)c(O)c1)c1cc(O)c(O)c(O)c1", "target": "FLAG-Uba1 (Homo sapiens, UniProt P22314)", "units-label": "µM", "IC50": 0.769}

// next entry
**Q:** Which IC50 is reported for this compound? `CCCCCCCCCCCCOC(=O)c1cc(O)c(O)c(O)c1`
**A:** 44.4

###

target: FLAG-Uba1 (Homo sapiens, UniProt P22314)
Construct: GST- and FLAG-tagged human Uba1 in pBJ842, expressed in S. cerevisiae BJ5654, GST cleaved with PreScission protease, FLAG tag kept
method: AlphaScreen Uba1~ubiquitin thioester formation
Type: biochemical
experimental-conditions: read-out: IC50for inhibition of PCNA ubiquitination (Alpha)
pIC50: −log10 of the molar value.
measured-endpoint: pIC50

**Q:** Would you mind telling me what pIC50 value was observed for `O=C(O)c1cc(O)c(O)c(O)c1` ?
**A:** < 3.30

###

target: FLAG-Uba1 (Homo sapiens, UniProt P22314)
Construct: GST- and FLAG-tagged human Uba1 in pBJ842, expressed in S. cerevisiae BJ5654, GST cleaved with PreScission protease, FLAG tag kept
method: AlphaScreen Uba1~ubiquitin thioester formation
Format: biochemical
experimental-conditions: read-out: IC50for inhibition of PCNA ubiquitination (Alpha)
measured-endpoint: IC50

{"smiles-representation": "Oc1cc(O)c2c(c1)O[C@H](c1ccc(O)c(O)c1)[C@H](O)C2", "IC50": "> 500 µM"}

**Q:** Query IC50 on FLAG-Uba1 (Homo sapiens, UniProt P22314) for `CCCOC(=O)c1cc(O)c(O)c(O)c1`
**A:** > 500 µM

###

target: FLAG-Uba1 (Homo sapiens, UniProt P22314)
Construct: GST- and FLAG-tagged human Uba1 in pBJ842, expressed in S. cerevisiae BJ5654, GST cleaved with PreScission protease, FLAG tag kept
Sequence (P22314 2-1058): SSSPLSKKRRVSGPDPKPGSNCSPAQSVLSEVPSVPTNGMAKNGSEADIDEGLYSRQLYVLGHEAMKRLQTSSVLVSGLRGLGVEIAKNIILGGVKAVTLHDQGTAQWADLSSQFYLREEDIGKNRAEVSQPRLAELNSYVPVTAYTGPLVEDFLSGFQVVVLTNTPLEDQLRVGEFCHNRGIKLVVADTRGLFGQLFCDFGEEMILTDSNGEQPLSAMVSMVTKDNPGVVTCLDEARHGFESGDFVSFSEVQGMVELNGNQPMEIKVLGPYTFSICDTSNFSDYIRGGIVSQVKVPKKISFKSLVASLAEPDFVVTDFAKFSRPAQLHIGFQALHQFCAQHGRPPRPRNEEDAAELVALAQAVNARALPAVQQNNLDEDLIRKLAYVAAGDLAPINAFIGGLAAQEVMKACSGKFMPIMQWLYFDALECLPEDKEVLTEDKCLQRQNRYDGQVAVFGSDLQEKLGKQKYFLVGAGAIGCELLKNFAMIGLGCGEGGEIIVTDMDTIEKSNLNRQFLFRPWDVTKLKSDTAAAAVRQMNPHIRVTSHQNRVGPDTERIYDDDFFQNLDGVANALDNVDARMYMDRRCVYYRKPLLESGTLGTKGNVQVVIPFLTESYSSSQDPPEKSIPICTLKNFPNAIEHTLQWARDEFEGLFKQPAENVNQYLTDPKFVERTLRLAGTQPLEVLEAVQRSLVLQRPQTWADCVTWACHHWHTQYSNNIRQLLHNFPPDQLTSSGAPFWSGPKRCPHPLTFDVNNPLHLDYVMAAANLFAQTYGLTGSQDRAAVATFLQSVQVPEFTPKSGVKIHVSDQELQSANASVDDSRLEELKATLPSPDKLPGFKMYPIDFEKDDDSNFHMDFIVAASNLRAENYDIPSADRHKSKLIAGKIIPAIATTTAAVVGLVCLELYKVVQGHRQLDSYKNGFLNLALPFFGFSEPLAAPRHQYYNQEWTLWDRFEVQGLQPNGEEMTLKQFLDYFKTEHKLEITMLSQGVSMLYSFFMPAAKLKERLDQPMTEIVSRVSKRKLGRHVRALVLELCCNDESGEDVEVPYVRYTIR
method: AlphaScreen Uba1~ubiquitin thioester formation
Format: biochemical
experimental-conditions: 15 min preincubation; biotin-ubiquitin, 2 mM ATP, 8 mM MgCl2, pH 7.5, 25 °C, 30 min, 1% DMSO; read-out: IC50for inhibition of Uba1~Ub thioester formation (Alpha)
measured-endpoint: IC50
Answer with the figure and its unit, nothing else.

**Q:** Name the recorded IC50 for CCCCCCCCOC(=O)c1cc(O)c(O)c(O)c1 [OG] .
**A:** 13.4 µM
